intrinsic clearance, rat liver microsomes by entry:
Answer format: numeric, mL/min/kg implied, no suffix.

Some compounds with recorded intrinsic clearance, rat liver microsomes:
MOL | UNIT | MEASURED VALUE
CON(C)C(=O)c1cc2ccc(C(C)(C)C)cc2[nH]1 | mL/min/kg | 344
CS(=O)(=O)c1cccc(CNc2nc(Nc3ccc4c(c3)CCC(=O)N4)ncc2C(F)(F)F)c1 | mL/min/kg | 133
c1ccc(-c2n[nH]c(C3CCN(c4ccccn4)CC3)n2)cc1 | mL/min/kg | 440

Incoming: Quick one: intrinsic clearance, rat liver microsomes for CC(C)C[C@@H](C(N)=O)n1ccnc1-c1cccc2ccccc12 ?
Outgoing: 1410

Incoming: Quick one: intrinsic clearance, rat liver microsomes for Cc1ccc2c(CC(=O)NCc3cccs3)coc2c1 ?
Outgoing: 2520

====

- CONDITION LABEL: pH 6.8
aqueous solubility by entry:
Answer format: numeric, µg/mL implied, no suffix.

MOL | aqueous solubility, µg/mL
c1ccc2c(c1)CCN(Cc1nnc3n1CCC3)C2 | 35.3

Incoming: Quick one: aqueous solubility for N#Cc1ccc(COc2ccccc2C#N)cc1 ?
Outgoing: 1.71

Incoming: Quick one: aqueous solubility for O=C(O)c1ccc(=O)n(CCc2c[nH]c3ccccc23)c1 ?
Outgoing: 42.4

Incoming: Quick one: aqueous solubility for CCOC(=O)Nc1cc(-c2ccc(C)c(NS(C)(=O)=O)c2)nn2c(C)nnc12 ?
Outgoing: 51.4

Incoming: Quick one: aqueous solubility for CN(CCc1ccccc1)C(=O)CC#N ?
Outgoing: 32.5

Incoming: Quick one: aqueous solubility for O=C(Nc1nccs1)C1CCN(C(=O)CN2CCc3ccccc32)CC1 ?
Outgoing: 51.4

====

- CONDITION LABEL: pH 6.8
Label condition met when aqueous solubility >= 30 µg/mL; otherwise condition not met.

Worked set:
COMPOUND | CAT
CSCc1noc(COc2ccc(F)cc2F)n1 | condition not met
O=C(NCc1nnc2n1-c1ccccc1CC2)c1ccc2ccccc2c1 | condition met
CCOC(=O)c1cc2ccccc2n1CC(=O)c1ccc(F)cc1 | condition not met

Incoming: In plain terms: is recorded aqueous solubility at least 30 µg/mL for O=C(NCc1ccc2c(c1)OCCO2)c1sccc1C1CC1 ?
Outgoing: condition met

Incoming: In plain terms: is recorded aqueous solubility at least 30 µg/mL for Cc1nc(C(=O)NC2CC2)ccc1C#N ?
Outgoing: condition met

Incoming: In plain terms: is recorded aqueous solubility at least 30 µg/mL for CC(=O)NC1(C(=O)N2CCCN(C3CC3)CC2)CCC(C)CC1 (stereo unspecified) ?
Outgoing: condition met

====

log10 aqueous solubility by entry:
- CONDITION LABEL: pH 6.8
Scale type: logarithmic (base 10). Underlying aqueous solubility unit: mg/mL.

MOL | EXPERIMENTAL READOUT | MEASURED VALUE
Cc1ccc2c(CC(=O)NCc3cccs3)coc2c1 | log10 aqueous solubility | -2.21
CN(c1ncnc2c1cnn2CCO)C1CCCCC1 | log10 aqueous solubility | -1.35
Cc1n[nH]c(C)c1CCC(=O)N1CCOCC1 | log10 aqueous solubility | -1.59
Cc1ccc(F)c(N(C#N)Cc2nnc(C)o2)c1 | log10 aqueous solubility | -1.35
Nc1nc2c(N)ncnc2[nH]1 | log10 aqueous solubility | -1.75

Incoming: Quick one: log10 aqueous solubility for O=C(NCc1ccc(-n2cncn2)nc1)c1csc2c1CCCC2 ?
Outgoing: -2.28

Incoming: Quick one: log10 aqueous solubility for O=C(c1ccc2oc(CCCc3ccccc3)nc2c1)N1CCC(Oc2cccnc2)CC1 ?
Outgoing: -1.61

Incoming: Quick one: log10 aqueous solubility for Cc1cnn(Cc2nc(Cn3cccn3)no2)c1 ?
Outgoing: -1.44

Incoming: Quick one: log10 aqueous solubility for CN(Cc1ccc2c(c1)OCO2)Cc1ccccc1C#N ?
Outgoing: -1.55

Incoming: Quick one: log10 aqueous solubility for N#Cc1cccc(CN2CCOC[C@H](Oc3ccccc3)C2)c1 ?
Outgoing: -1.28

Incoming: Quick one: log10 aqueous solubility for O=C(CN1CCc2ccccc21)N1CCC(c2nc3ccccc3[nH]2)CC1 ?
Outgoing: -1.28

Incoming: Quick one: log10 aqueous solubility for CN(C)[C@@H]1CN(C(=O)COc2ccccc2)C[C@H]1O ?
Outgoing: -1.08

Values were extracted from the Biogen ADME set (Fang et al. 2023).
